Target: T1, 人IL-18Rβ蛋白 (IL-18Rβ antigen) (human)
T1 chain: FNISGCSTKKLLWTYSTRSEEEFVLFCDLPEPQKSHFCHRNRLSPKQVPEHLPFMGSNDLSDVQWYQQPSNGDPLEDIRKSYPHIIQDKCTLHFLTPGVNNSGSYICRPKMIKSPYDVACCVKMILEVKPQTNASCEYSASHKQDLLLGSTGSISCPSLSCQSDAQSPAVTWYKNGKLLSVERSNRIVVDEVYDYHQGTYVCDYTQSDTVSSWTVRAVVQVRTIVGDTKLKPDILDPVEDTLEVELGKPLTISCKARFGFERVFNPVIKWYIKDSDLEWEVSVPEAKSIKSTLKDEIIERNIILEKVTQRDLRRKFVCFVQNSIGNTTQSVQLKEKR
Assay: SPR (Biacore 8K), secreted Fab captured on SASA sensor, antigen injected, 1:1 fit
# kon per record follows
property: kon (M⁻¹ s⁻¹)

- binder: "A042 Fab clone (Fab, V domains shown) VH: EVQLVESGGGLVQPGGSLRLSCAASGLNLYYSSMHWVRQAPGKGLEWVASIYSSNGRTYYADSVKGRFTISADTSKNTAYLQMNSLRAEDTAVYYCARASFSHGYGWYGLDYWGQGTLVTVSS VL: DIQMTQSPSSLSASVGDRVTITCRASQSVSSAVEWYQQKPGKAPKLLIYSASSLYSGVPSRFSGSRSGTDFTLTISSLQPEDFATYYCQQYGYHDAGLITFGQGTKVEIK"
  property: "kon"
  data value: 79000
- binder: "A036 Fab clone (Fab, V domains shown) VH: EVQLVESGGGLVQPGGSLRLSCAASGINLYYSSMHWVRQAPGKGLEWVASIYSSNGRTYYADSVKGRFTISADTSKNTAYLQMNSLRAEDTAVYYCARASFSHGYGWYGLDYWGQGTLVTVSS VL: DIQMTQSPSSLSASVGDRVTITCRASQSVSSAVDWYQQKPGKAPKLLIYSASSLYSGVPSRFSGSRSGTDFTLTISSLQPEDFATYYCQQYGYHDAGLITFGQGTKVEIK"
  property: "kon"
  data value: 107000
- binder: "A037 Fab clone (Fab, V domains shown, Mutations against C056-WT: VL-S31F/VL-A34D/VH-F27L) VH: EVQLVESGGGLVQPGGSLRLSCAASGLNLYYSSMHWVRQAPGKGLEWVASIYSSNGRTYYADSVKGRFTISADTSKNTAYLQMNSLRAEDTAVYYCARSSFSHGYGWYGLDYWGQGTLVTVSS VL: DIQMTQSPSSLSASVGDRVTITCRASQSVSFAVDWYQQKPGKAPKLLIYSASSLYSGVPSRFSGSRSGTDFTLTISSLQPEDFATYYCQQYGYHDAGLITFGQGTKVEIK"
  property: "kon"
  data value: 118000
- binder: "A041 Fab clone (Fab, V domains shown) VH: EVQLVESGGGLVQPGGSLRLSCAASGVNLYYSSMHWVRQAPGKGLEWVASIYSSNGRTYYADSVKGRFTISADTSKNTAYLQMNSLRAEDTAVYYCARASFSHGYGWYGLDYWGQGTLVTVSS VL: DIQMTQSPSSLSASVGDRVTITCRASQSVSFAVDWYQQKPGKAPKLLIYSASSLYSGVPSRFSGSRSGTDFTLTISSLQPEDFATYYCQQYGYHDAGLITFGQGTKVEIK"
  property: "kon"
  data value: 153000
- binder: "A038 Fab clone (Fab, V domains shown, Mutations against C056-WT: VL-A34E/VH-F27I) VH: EVQLVESGGGLVQPGGSLRLSCAASGINLYYSSMHWVRQAPGKGLEWVASIYSSNGRTYYADSVKGRFTISADTSKNTAYLQMNSLRAEDTAVYYCARSSFSHGYGWYGLDYWGQGTLVTVSS VL: DIQMTQSPSSLSASVGDRVTITCRASQSVSSAVEWYQQKPGKAPKLLIYSASSLYSGVPSRFSGSRSGTDFTLTISSLQPEDFATYYCQQYGYHDAGLITFGQGTKVEIK"
  property: "kon"
  data value: 78200
